binders and their reported Emax
Biological target: T1, human DLL3 on cells (human, UniProt Q9NYJ7 27-618)
T1 construct: Endogenous on H1184 and SHP77; Cell line is named under assay; also called H1184; DLL3/H82
T1 sequence: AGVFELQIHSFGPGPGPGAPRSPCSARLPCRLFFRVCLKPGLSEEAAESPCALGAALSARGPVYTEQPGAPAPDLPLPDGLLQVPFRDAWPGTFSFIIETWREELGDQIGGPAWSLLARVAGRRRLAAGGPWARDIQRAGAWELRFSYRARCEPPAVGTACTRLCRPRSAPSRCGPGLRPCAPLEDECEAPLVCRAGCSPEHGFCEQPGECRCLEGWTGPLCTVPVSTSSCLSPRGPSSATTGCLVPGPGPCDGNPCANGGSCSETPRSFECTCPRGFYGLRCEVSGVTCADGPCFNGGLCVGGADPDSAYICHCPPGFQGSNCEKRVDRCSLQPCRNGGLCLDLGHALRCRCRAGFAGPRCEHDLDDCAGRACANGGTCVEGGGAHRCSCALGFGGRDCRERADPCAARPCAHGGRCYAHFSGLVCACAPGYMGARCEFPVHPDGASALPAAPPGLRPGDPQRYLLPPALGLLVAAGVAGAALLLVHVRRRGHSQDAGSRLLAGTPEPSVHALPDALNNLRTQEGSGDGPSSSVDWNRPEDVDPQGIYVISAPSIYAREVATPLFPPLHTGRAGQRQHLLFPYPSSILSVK
Test: flow cytometry, SHP77 cells

hu30L4H5 (antibody, human IgG1, kappa, V domains shown) VH: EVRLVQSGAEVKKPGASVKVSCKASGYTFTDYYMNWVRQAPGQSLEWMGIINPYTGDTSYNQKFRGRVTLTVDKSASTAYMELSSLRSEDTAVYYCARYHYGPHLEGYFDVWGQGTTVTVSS VL: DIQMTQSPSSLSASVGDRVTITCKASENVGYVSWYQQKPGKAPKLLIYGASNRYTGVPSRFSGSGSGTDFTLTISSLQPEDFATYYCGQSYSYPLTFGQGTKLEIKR; 1460
hu30L4H9 (antibody, human IgG1, kappa, V domains shown) VH: EVRLVQSGAEVKKPGASVKVSCKASGYTFTDYYMNWVRQAPGQSLEWIGIINPYTGDTSYNQKFRGRATLTVDKSASTAYMELSSLRSEDTAVYYCARYHYGPHLEGYFDVWGQGTTVTVSS VL: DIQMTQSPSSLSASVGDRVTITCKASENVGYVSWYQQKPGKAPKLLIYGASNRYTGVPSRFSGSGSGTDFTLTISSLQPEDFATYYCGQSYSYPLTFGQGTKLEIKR; 1370

Report Emax for hu30L4H8 (antibody, human IgG1, kappa, V domains shown) VH: EVRLVQFGAVVKKPGASVKVSCKASGYTFTDYYMNWVRQAPGQSLEWMGIINPYTGDTSYNQKFRGRVTLTVDKSSSTAYMELSSLRSEDTAVYYCARYHYGPHLEGYFDVWGQGTTVTVSS VL: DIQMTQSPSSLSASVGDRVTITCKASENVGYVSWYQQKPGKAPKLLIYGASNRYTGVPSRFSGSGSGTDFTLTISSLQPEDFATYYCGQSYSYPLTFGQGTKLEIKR please.
1420
